- assayed.target: human GR (Homo sapiens)
- assay.overview: Trans-Activation Modulation of Glucocorticoid Receptor (GRAMMER), MMTV-LUC reporter, agonist mode
- Assay type: cell-based
- Design: endogenous in cells
- stated.conditions: A549, A549 cells; maximum activity; read-out: Transactivation A549 Cells GRAMMER Emax
readout.name: Emax (%)

Below, 8 compounds whose answers are already recorded.
response.value for COc1cccc(CCN(C[C@H]2CCC3=Cc4c(cnn4-c4ccc(F)cc4)C[C@@]32C)S(=O)(=O)CC(F)(F)F)c1 (field: Emax) = 78.2

Per the record, CCCCS(=O)(=O)N(CCc1ccccc1F)C[C@H]1CCC2=Cc3c(cnn3-c3ccc(F)cc3)C[C@@]21C has Emax of 78.3

// recorded Emax for C[C@]12Cc3cnn(-c4ccc(F)cc4)c3C=C1CC[C@@H]2CN(CC(O)c1cccnc1)S(=O)(=O)CC(F)(F)F (some centres unmarked) : 83.5

Value of Emax reported for the compound COc1ccc(CCN(C[C@H]2CCC3=Cc4c(cnn4-c4ccc(F)cc4)C[C@@]32C)S(=O)(=O)CC(F)(F)F)cc1 is 67.9

CC(=O)Nc1ccc(S(=O)(=O)N(CC2CC2)C[C@H]2CCC3=Cc4c(cnn4-c4ccc(F)cc4)C[C@@]32C)cc1 yielded Emax of 13

Recorded result, C[C@]12Cc3cnn(-c4ccc(F)cc4)c3C=C1CC[C@@H]2CN(CC#N)S(=O)(=O)c1ccc(Cl)c(C(F)(F)F)c1 , Emax: 3

The compound listed as C[C@]12Cc3cnn(-c4ccc(F)cc4)c3C=C1CC[C@@H]2CN(Cc1ccccc1F)S(=O)(=O)c1cccc(C(N)=O)c1 shows Emax equal to 4.3

Recorded result, COCCN(C[C@H]1CCC2=Cc3c(cnn3-c3ccc(F)cc3)C[C@@]21C)S(C)(=O)=O , Emax: 65.7

(a) Cn1cc(S(=O)(=O)N(CCc2ccccn2)C[C@H]2CCC3=Cc4c(cnn4-c4ccc(F)cc4)C[C@@]32C)c(C(F)(F)F)n1
(b) C[C@]12Cc3cnn(-c4ccc(F)cc4)c3C=C1CC[C@@H]2CN(CCc1ccccc1F)S(=O)(=O)Cc1ccccc1Cl
Query block: Compare the recorded Emax of a and b ; state which is larger. // respond with label for picked entry
Result block: b

(A) C[C@]12Cc3cnn(-c4ccccc4)c3C=C1CC[C@@H]2CN(CCc1ccccc1O)S(=O)(=O)Cc1cccnc1
(B) C[C@]12Cc3cnn(-c4ccc(F)cc4)c3C=C1CC[C@@H]2CN(CCO)S(=O)(=O)c1ccccc1F
Query block: Quick one: lower Emax, A or B ? Pick one; state its label.
Result block: A

###

- assayed.target: human GR (Homo sapiens)
- assay.overview: Trans-Activation Modulation of Glucocorticoid Receptor (GRAMMER), MMTV-LUC reporter, agonist mode
- Format: cell-based
- Set-up: endogenous in cells
- stated.conditions: A549, A549 cells; maximum activity; read-out: Transactivation A549 Cells GRAMMER Emax
readout.name: Emax (%)

The recorded Emax for C[C@]12Cc3cnn(-c4ccc(F)cc4)c3C=C1CC[C@@H]2CN(CC#N)S(=O)(=O)c1cccc2ccccc12 is 3.2

The measured Emax associated with COC(=O)c1ccccc1CS(=O)(=O)N(CCc1ccccc1F)C[C@H]1CCC2=Cc3c(cnn3-c3ccc(F)cc3)C[C@@]21C reads 30.4

Per the records, this compound ( C[C@]12Cc3cnn(-c4ccc(F)cc4)c3C=C1CC[C@@H]2CN(CCO)S(=O)(=O)c1ccc(C#N)cc1Cl ) has Emax equal to 23

// CCS(=O)(=O)N(CC1CCCO1)C[C@H]1CCC2=Cc3c(cnn3-c3ccc(F)cc3)C[C@@]21C (some centres unmarked) : Emax value = 81.1

Data point: CCN(C[C@H]1CCC2=Cc3c(cnn3-c3ccc(F)cc3)C[C@@]21C)S(=O)(=O)CC(F)(F)F ; Emax = 65.4

(a) C[C@]12Cc3cnn(-c4ccc(F)cc4)c3C=C1CC[C@@H]2CN(CC#N)S(=O)(=O)c1ccccc1F
(b) CCCS(=O)(=O)N(CCc1ccccn1)C[C@H]1CCC2=Cc3c(cnn3-c3ccc(F)cc3)C[C@@]21C
(c) COc1ccccc1CCN(C[C@H]1CCC2=Cc3c(cnn3-c3ccc(F)cc3)C[C@@]21C)S(=O)(=O)Cc1cccc(C(F)(F)F)c1
(d) COc1ccccc1CCN(C[C@H]1CCC2=Cc3c(cnn3-c3ccc(F)cc3)C[C@@]21C)S(=O)(=O)Cc1cccnc1
(e) Cn1cnc(S(=O)(=O)N(CC#N)C[C@H]2CCC3=Cc4c(cnn4-c4ccc(F)cc4)C[C@@]32C)c1
Query block: Hey, can you sort those compounds up there by Emax, smallest first? List each label, following the requested order.
Result block: e, c, d, a, b
(e: 2.8%, c: 6.6%, d: 21.2%, a: 36%, b: 76%)

###

- assayed.target: glucocorticoid receptor (Homo sapiens)
- Construct: endogenous in cells
- assay.overview: Ligand binding assay (GR BIND)
readout.name: Ki (nM)

Ki reading for C[C@]12Cc3cnn(-c4ccc(F)cc4)c3C=C1CC[C@@H]2CN(CC#N)S(=O)(=O)c1ccc(Cl)c(C(F)(F)F)c1 : 8.8

Field Ki (entry CC(CN(C[C@H]1CCC2=Cc3c(cnn3-c3ccc(F)cc3)C[C@@]21C)S(=O)(=O)CC(F)(F)F)c1cccnc1 (some centres unmarked) ) reads 0.8

What the record says about Cc1ccc(CCN(C[C@H]2CCC3=Cc4c(cnn4-c4ccc(F)cc4)C[C@@]32C)S(=O)(=O)c2ccccc2F)cc1 : Ki is 2

The recorded Ki for entry C[C@]12Cc3cnn(-c4ccc(F)cc4)c3C=C1CC[C@@H]2CN(CCO)S(=O)(=O)c1ccc(F)cc1F equals 3.2

# Ki of C[C@]12Cc3cnn(-c4ccc(F)cc4)c3C=C1CC[C@@H]2CN(CC#N)S(=O)(=O)c1ccc(F)cc1F = 2.5

(1) C[C@]12Cc3cnn(-c4ccccc4)c3C=C1CC[C@@H]2CN(CCc1ccccc1O)S(=O)(=O)Cc1cccnc1
(2) CCCS(=O)(=O)N(CCOC)C[C@H]1CCC2=Cc3c(cnn3-c3ccc(F)cc3)C[C@@]21C
(3) Cc1ccc(S(=O)(=O)N(CCO)C[C@H]2CCC3=Cc4c(cnn4-c4ccc(F)cc4)C[C@@]32C)s1
Query block: Rank descending by Ki. Answer by writing out the labels in the requested order.
Result block: 2, 3, 1
(2: 5.2 nM, 3: 3 nM, 1: 1.1 nM)

###

- assayed.target: human GR (Homo sapiens)
- assay.overview: Trans-Activation Modulation of Glucocorticoid Receptor (GRAMMER), MMTV-LUC reporter, agonist mode
- Assay type: cell-based
- Set-up: endogenous in cells
- stated.conditions: A549 cells; inflection point; read-out: Transactivation A549 Cells GRAMMER IP
pEC50: −log10 of the molar value.
readout.name: pEC50

So, C[C@]12Cc3cnn(-c4ccc(F)cc4)c3C=C1CC[C@@H]2CN(CC(O)C(F)F)S(=O)(=O)CC(F)(F)F (stereo partly drawn) [Example 133] ? Its pEC50 was 7.17

(P) Cn1nc(C(F)(F)F)cc1-c1ccc(S(=O)(=O)N(CC#N)C[C@H]2CCC3=Cc4c(cnn4-c4ccc(F)cc4)C[C@@]32C)s1 [Example 35]
(Q) Cn1cc(S(=O)(=O)N(CCO)C[C@H]2CCC3=Cc4c(cnn4-c4ccc(F)cc4)C[C@@]32C)c(C(F)(F)F)n1 [Example 65]
Query block: Form field 'greater pEC50' accepts P or Q ; which applies? Could you answer with the label of the item you picked?
Result block: P

###

- assayed.target: glucocorticoid receptor (Homo sapiens, UniProt P04150)
- Construct: endogenous in cells
- Sequence (P04150 whole entry): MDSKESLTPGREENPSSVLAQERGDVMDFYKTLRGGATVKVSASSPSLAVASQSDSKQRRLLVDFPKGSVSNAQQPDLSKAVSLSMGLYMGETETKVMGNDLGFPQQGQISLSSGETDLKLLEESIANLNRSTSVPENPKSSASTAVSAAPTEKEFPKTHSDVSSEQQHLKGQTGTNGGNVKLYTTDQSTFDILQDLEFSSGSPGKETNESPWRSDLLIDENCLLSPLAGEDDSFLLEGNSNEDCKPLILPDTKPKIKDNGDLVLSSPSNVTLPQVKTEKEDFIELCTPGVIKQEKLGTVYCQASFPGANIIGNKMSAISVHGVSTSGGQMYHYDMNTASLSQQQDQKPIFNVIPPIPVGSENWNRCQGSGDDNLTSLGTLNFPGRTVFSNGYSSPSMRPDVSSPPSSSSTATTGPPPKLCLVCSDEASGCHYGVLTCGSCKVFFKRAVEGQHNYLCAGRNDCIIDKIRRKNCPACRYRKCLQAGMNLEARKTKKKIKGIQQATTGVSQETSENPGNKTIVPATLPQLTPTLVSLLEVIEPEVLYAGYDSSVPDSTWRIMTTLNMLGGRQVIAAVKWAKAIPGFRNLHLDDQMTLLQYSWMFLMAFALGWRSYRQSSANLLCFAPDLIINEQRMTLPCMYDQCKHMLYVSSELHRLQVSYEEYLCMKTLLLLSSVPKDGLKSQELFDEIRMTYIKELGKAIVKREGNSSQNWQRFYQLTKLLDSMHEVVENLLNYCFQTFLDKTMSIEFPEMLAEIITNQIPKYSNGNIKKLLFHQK
- assay.overview: Ligand binding assay (GR BIND)
pKi: −log10 of the molar value.
readout.name: pKi

(A) COc1ccccc1CCN(C[C@H]1CCC2=Cc3c(cnn3-c3ccc(F)cc3)C[C@@]21C)S(=O)(=O)Cc1cccc(C(F)(F)F)c1
(B) COc1ccc(CCN(C[C@H]2CCC3=Cc4c(cnn4-c4ccc(F)cc4)C[C@@]32C)S(=O)(=O)CC(F)(F)F)cc1
Query block: Kindly identify which of A and B has the larger recorded pKi value. // caller expects the label of the chosen entry
Result block: B

###

- assayed.target: human GR (Homo sapiens, UniProt P04150)
- Sequence (P04150 whole entry): as above
- assay.overview: Trans-Activation Modulation of Glucocorticoid Receptor (GRAMMER), MMTV-LUC reporter, agonist mode
- Format: cell-based
- Design: endogenous in cells
- stated.conditions: A549 cells; inflection point; read-out: Transactivation A549 Cells GRAMMER IP
- Text: This assay assesses the ability of test compounds to control transcription from the MMTV-LUC reporter gene in lung adenocarcinoma A549 cells or MDA-MB-453 cells, a human breast cancer cell line that naturally expresses the human GR. […] The routine transient assay consists of plating 7,000-25,000 cells/well of a white, clear-bottom 96-well plate. […] The cells are trypsinized and counted to the right cell number in the proper amount of fresh media. […]
readout.name: EC50 (nM)

get_value(item= CC(C)(O)CN(C[C@H]1CCC2=Cc3c(cnn3-c3ccc(F)cc3)C[C@@]21C)S(=O)(=O)c1ccccc1F , readout=EC50) returns 96.8

# EC50 of C[C@]12Cc3cnn(-c4ccc(F)cc4)c3C=C1CC[C@@H]2CN(CCC#N)S(=O)(=O)c1ccccc1F = 254

(A) C[C@]12Cc3cnn(-c4ccc(F)cc4)c3C=C1CC[C@@H]2CN(CC=O)S(=O)(=O)c1ccccc1F
(B) C[C@]12Cc3cnn(-c4ccc(F)cc4)c3C=C1CC[C@@H]2CN(CC#N)S(=O)(=O)c1ccc(Oc2cccc(Cl)c2C#N)cc1
Query block: Given A and given B , which shows the smaller recorded EC50? Answer = label.
Result block: A
